Assay Target: Signal transducer and activator of transcription 3 (Homo sapiens) (UniProt P40763)
Sequence (P40763 whole entry, looked up): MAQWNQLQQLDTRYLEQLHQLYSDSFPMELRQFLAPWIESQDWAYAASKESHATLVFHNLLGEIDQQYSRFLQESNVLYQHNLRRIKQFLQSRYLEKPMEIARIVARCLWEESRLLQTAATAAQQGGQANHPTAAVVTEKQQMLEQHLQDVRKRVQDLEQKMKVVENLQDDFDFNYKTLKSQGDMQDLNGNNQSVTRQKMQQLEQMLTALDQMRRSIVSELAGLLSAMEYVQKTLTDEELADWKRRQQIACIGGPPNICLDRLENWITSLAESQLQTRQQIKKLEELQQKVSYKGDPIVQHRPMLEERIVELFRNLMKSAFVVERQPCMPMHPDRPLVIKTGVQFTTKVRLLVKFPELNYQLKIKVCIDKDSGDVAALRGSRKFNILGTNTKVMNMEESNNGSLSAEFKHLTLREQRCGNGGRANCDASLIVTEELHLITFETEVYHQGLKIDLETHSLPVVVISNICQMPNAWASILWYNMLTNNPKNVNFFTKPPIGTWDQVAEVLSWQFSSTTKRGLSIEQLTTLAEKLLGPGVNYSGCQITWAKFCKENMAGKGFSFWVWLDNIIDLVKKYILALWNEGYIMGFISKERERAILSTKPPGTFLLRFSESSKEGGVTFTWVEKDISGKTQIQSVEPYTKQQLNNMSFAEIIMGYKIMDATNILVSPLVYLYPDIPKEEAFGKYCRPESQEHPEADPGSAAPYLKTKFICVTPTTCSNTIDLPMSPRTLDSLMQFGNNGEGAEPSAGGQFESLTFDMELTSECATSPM
Assay Comment: ATG_STAT3_CIS: Attagene CIS-FACTORIAL HepG2 Assay for human Signal Transducer and Activator of Transcription 3 (STAT3) (AID 2282963)
Condition Description: HepG2, Attagene cis-factorial STAT3 reporter transcription; actives raise or lower the signal
Active and inactive are the calls of the source. Rule for the calls: active = hit-call score of the fitted dose curve at least 0.9, where 1 is the maximum; inactive = score below 0.9.
Classes used: yes (1) = active, no (0) = inactive

[
  {
    "Compound": "[CH3][Sn]([Cl])([Cl])[Cl]",
    "Label Value": "no (0)"
  },
  {
    "Compound": "CCC(C)c1cc([N+](=O)[O-])cc([N+](=O)[O-])c1OC(=O)C=C(C)C (configuration not stated)",
    "Label Value": "yes (1)"
  },
  {
    "Compound": "C[C@]12CC[C@H](O)C[C@H]1CC[C@@H]1[C@@H]2C[C@@H](O)[C@]2(C)[C@@H](C3=CC(=O)OC3)CC[C@]12O",
    "Label Value": "no (0)"
  },
  {
    "Compound": "Nc1ccc([N+](=O)[O-])cc1N",
    "Label Value": "no (0)"
  },
  {
    "Compound": "COC(C)(C)CCC[C@H](C)C/C=C/C(C)=C/C(=O)OC(C)C",
    "Label Value": "no (0)"
  },
  {
    "Compound": "N#CC(c1ccccc1)c1ccccc1",
    "Label Value": "no (0)"
  },
  {
    "Compound": "Clc1ccc(-c2ccccc2)cc1",
    "Label Value": "no (0)"
  },
  {
    "Compound": "O=C(NCNC(=O)NC1C(=O)NC(=O)N1CO)NC1C(=O)NC(=O)N1CO (configuration not stated)",
    "Label Value": "no (0)"
  },
  {
    "Compound": "CC(C)C(=O)Cl",
    "Label Value": "no (0)"
  },
  {
    "Compound": "CC1OC(C)OC(C)O1 (configuration not stated)",
    "Label Value": "no (0)"
  },
  {
    "Compound": "CC(C)COP(=O)(OCC(C)C)OCC(C)C",
    "Label Value": "no (0)"
  },
  {
    "Compound": "O=c1c2ccccc2c(=O)c2c1cc(Cl)c1[nH]c3c([nH]c12)c(Cl)cc1c(=O)c2ccccc2c(=O)c13",
    "Label Value": "no (0)"
  },
  {
    "Compound": "C=COCCCl",
    "Label Value": "no (0)"
  },
  {
    "Compound": "O=C1C(Cl)=C(Cl)C(=O)C(Cl)=C1Cl",
    "Label Value": "no (0)"
  },
  {
    "Compound": "BrCBr",
    "Label Value": "no (0)"
  },
  {
    "Compound": "N#CCCCCC#N",
    "Label Value": "no (0)"
  },
  {
    "Compound": "CC(=O)C=Cc1ccccc1",
    "Label Value": "no (0)"
  },
  {
    "Compound": "C=CCc1ccc(OC(=O)Cc2ccccc2)c(OC)c1",
    "Label Value": "no (0)"
  },
  {
    "Compound": "ClCCCCCCCl",
    "Label Value": "no (0)"
  },
  {
    "Compound": "CN1C[C@H](C(=O)N[C@]2(C)O[C@@]3(O)[C@@H]4CCCN4C(=O)[C@H](Cc4ccccc4)N3C2=O)C=C2c3cccc4[nH]cc(c34)C[C@H]21",
    "Label Value": "no (0)"
  },
  {
    "Compound": "CN1C(=O)CCS(=O)(=O)C1c1ccc(Cl)cc1 (configuration not stated)",
    "Label Value": "no (0)"
  },
  {
    "Compound": "N#Cc1cccc(C#N)c1",
    "Label Value": "no (0)"
  },
  {
    "Compound": "O=S(=O)(O)O",
    "Label Value": "no (0)"
  },
  {
    "Compound": "CCCCCCCCCCCCCCCC[N+](C)(C)C",
    "Label Value": "no (0)"
  },
  {
    "Compound": "O=[N+]([O-])c1cc(C(F)(F)F)c(Cl)c([N+](=O)[O-])c1Cl",
    "Label Value": "no (0)"
  },
  {
    "Compound": "CC(=O)/C=C/c1ccccc1",
    "Label Value": "no (0)"
  },
  {
    "Compound": "Cc1ccc(C)c2ccccc12",
    "Label Value": "no (0)"
  }
]

----------
Assay Comment: UKN2_HCS_IMR90_cell_viability: Viability Assessment in the University of Konstanz (UKN) Leist Lab Neural Crest Cell Migration Assay in human induced IMR90 Pluripotent Stem Cells (UKN2) (AID 2284233);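 note: viability of neural crest cells differentiated from IMR90 iPSC measured by calcein-AM fluorescence imaging; cells exposed to compound for 24 h after a 24 h migration phase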
Active and inactive are the calls of the source. Rule for the calls: active = hit-call score of the fitted dose curve at least 0.9, where 1 is the maximum; inactive = score below 0.9.

[
  {
    "Compound": "CC(=O)[O-].[Tl+]",
    "AC50": "90 µM (active)"
  },
  {
    "Compound": "CC1(C)C(C=C(Cl)Cl)[C@H]1C(=O)O[C@H](C#N)c1cccc(Oc2ccccc2)c1 (some centres not stated)",
    "AC50": "inactive"
  },
  {
    "Compound": "CCOP(=O)(OCC)OC(Cl)C(Cl)(Cl)Cl (configuration not stated)",
    "AC50": "inactive"
  },
  {
    "Compound": "CN[C@@H](C)Cc1ccccc1",
    "AC50": "inactive"
  },
  {
    "Compound": "C/C(=C/C=C/[C@@H](C)C(=O)O)[C@H]1CN[C@H](C(=O)O)[C@H]1CC(=O)O",
    "AC50": "inactive"
  },
  {
    "Compound": "CC(=O)[O-].CC(=O)[O-].O.O.O.[Pb+2]",
    "AC50": "inactive"
  },
  {
    "Compound": "[CH3][Hg][Cl]",
    "AC50": "5 µM (active)"
  }
]

----------
Assay Target: Retinoic acid receptor RXR-alpha (Homo sapiens)
Assay Comment: OT_NURR1_NURR1RXRa_0480: Odyssey Thera (OT) 8-hour HEK293T Protein Complementation Assay for Nurr1/retinoid X receptor (RXR) (AID 2283385)
Records with an inconclusive call do not appear. Calls of active or inactive are those of the source. How the source made its calls: active means hit-call score of the fitted dose curve at least 0.9, where 1 is the maximum; inconclusive means response in the unintended direction; inactive means score below 0.9.
Classes used: YES (active), NO (inactive)

[
  {
    "Molecule": "CN(C)N",
    "Label Value": "NO"
  },
  {
    "Molecule": "CC(=O)c1cc2c(cc1C)C(C)(C)C(C)CC2(C)C (stereo not drawn)",
    "Label Value": "YES"
  },
  {
    "Molecule": "CC(=O)C=Cc1ccccc1",
    "Label Value": "YES"
  },
  {
    "Molecule": "CCC(=O)c1ccc(Cl)cc1",
    "Label Value": "NO"
  },
  {
    "Molecule": "c1cc[n+]2c(c1)-c1cccc[n+]1CC2",
    "Label Value": "NO"
  },
  {
    "Molecule": "CCc1cccc(C)c1N(C(=O)CCl)[C@@H](C)COC",
    "Label Value": "NO"
  },
  {
    "Molecule": "CC(O)CN(CC(C)O)CC(C)O (stereo not drawn)",
    "Label Value": "NO"
  },
  {
    "Molecule": "O=CNC(N1CCN(C(NC=O)C(Cl)(Cl)Cl)CC1)C(Cl)(Cl)Cl (stereo not drawn)",
    "Label Value": "NO"
  },
  {
    "Molecule": "COc1cc(OC)nc(Oc2cccc(Oc3nc(OC)cc(OC)n3)c2C(=O)O)n1",
    "Label Value": "NO"
  },
  {
    "Molecule": "[CH3][Sn]([CH3])([Cl])[Cl]",
    "Label Value": "NO"
  },
  {
    "Molecule": "CCOP(=O)(OCC)Oc1ccc([N+](=O)[O-])cc1",
    "Label Value": "NO"
  },
  {
    "Molecule": "CC(C)(O)C#N",
    "Label Value": "NO"
  },
  {
    "Molecule": "CC1CCCC1.[C-]#[O+].[C-]#[O+].[C-]#[O+].[Mn]",
    "Label Value": "NO"
  },
  {
    "Molecule": "c1ccc(P(c2ccccc2)c2ccccc2)cc1",
    "Label Value": "NO"
  },
  {
    "Molecule": "CC(C)(c1cc(Cl)c(O)c(Cl)c1)c1cc(Cl)c(O)c(Cl)c1",
    "Label Value": "YES"
  },
  {
    "Molecule": "CC(Cc1ccc(C(C)(C)C)cc1)CN1C[C@@H](C)O[C@@H](C)C1 (stereo partly drawn)",
    "Label Value": "YES"
  },
  {
    "Molecule": "CCCC=NO",
    "Label Value": "NO"
  },
  {
    "Molecule": "CN(C)C(=O)C(c1ccccc1)c1ccccc1",
    "Label Value": "NO"
  },
  {
    "Molecule": "O=C(O)CCl",
    "Label Value": "NO"
  },
  {
    "Molecule": "Cc1cc(C)c(C2=C(OC(=O)CC(C)(C)C)C3(CCCC3)OC2=O)c(C)c1",
    "Label Value": "NO"
  },
  {
    "Molecule": "CCOC(=O)C1OC1(C)c1ccccc1 (stereo not drawn)",
    "Label Value": "NO"
  },
  {
    "Molecule": "CC1(C)[C@H](C(=O)O[C@H](C#N)c2cccc(Oc3ccccc3)c2)[C@@H]1C=C(Br)Br",
    "Label Value": "NO"
  },
  {
    "Molecule": "O=S(=O)(O)OOS(=O)(=O)O",
    "Label Value": "NO"
  }
]

Values were extracted from PubChem BioAssay (EPA / NIEHS).
